Molecular target: Renin (Macaca fascicularis, UniProt Q6DLS0)
Sequence (Q6DLS0 whole entry): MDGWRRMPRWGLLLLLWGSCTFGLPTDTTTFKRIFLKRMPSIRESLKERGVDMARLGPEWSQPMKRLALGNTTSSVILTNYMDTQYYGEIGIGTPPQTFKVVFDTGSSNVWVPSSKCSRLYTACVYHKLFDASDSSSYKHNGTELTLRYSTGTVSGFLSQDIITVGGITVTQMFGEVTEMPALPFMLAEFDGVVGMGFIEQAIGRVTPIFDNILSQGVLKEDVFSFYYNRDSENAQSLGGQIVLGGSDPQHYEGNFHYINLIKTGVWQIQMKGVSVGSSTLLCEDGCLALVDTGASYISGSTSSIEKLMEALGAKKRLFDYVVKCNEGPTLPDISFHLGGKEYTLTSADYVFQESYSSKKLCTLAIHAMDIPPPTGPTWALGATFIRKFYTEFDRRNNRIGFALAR
Assay: Inhibition of renin in cynomolgus monkey plasma
pIC50: −log10 of the molar value.
result type: pIC50

Answered examples (4):
Recall the recorded pIC50 for CCCCNC(=O)[C@@H](C[C@H](O)[C@@H](N)CN1CC(=O)N(c2cc(F)ccc2Cl)CC1(C)C)C(C)C.O=C(O)/C=C/C(=O)O with Renin (Macaca fascicularis, UniProt Q6DLS0) and state it.
7.60

Recall the recorded pIC50 for Cc1ccccc1N1CC(C)(C)N(C[C@H](N)[C@@H](O)C[C@H](C(=O)NCC(C)(C)C(N)=O)C(C)C)CC1=O with Renin (Macaca fascicularis, UniProt Q6DLS0) and state it.
7.62

Recall the recorded pIC50 for CC(C)[C@H](C[C@H](O)[C@@H](N)CN1CC(=O)N(c2cccc(Cl)c2)CC1(C)C)C(=O)NCC(C)(C)C(N)=O with Renin (Macaca fascicularis, UniProt Q6DLS0) and state it.
7.60

Recall the recorded pIC50 for COc1ccc(Cl)c(N2CC(C)(C)N(C[C@H](N)[C@@H](O)C[C@H](C(=O)NCC(C)(C)C(N)=O)C(C)C)CC2=O)c1 with Renin (Macaca fascicularis, UniProt Q6DLS0) and state it.
7.48

(1) CC(C)[C@H](C[C@H](O)[C@@H](N)CN1CC(=O)N(c2cc(Cl)ccc2Cl)CC1(C)C)C(=O)NCC(C)(C)C(N)=O
(2) COCCCOc1ccccc1N1CCN(CC(N)C(O)CC(C(=O)NCC(C)(C)C(N)=O)C(C)C)CC1=O (racemic)
(3) CC(C)[C@H](C[C@H](O)[C@@H](N)CN1CC(=O)N(c2cccc(F)c2F)CC1(C)C)C(=O)NCC(C)(C)C(N)=O
Order the records by pIC50, with each subsequent value no larger than the one before. List each label, following the requested order.
3, 1, 2
(3: 7.96, 1: 7.55, 2: 5.55)
